Origin of measurements: patent US20260167714A1

Target Of Assay: T1, recombinant human ILT4 (LILRB2) (human, UniProt Q8N423 22-460)
T1 construct: Bought protein (Acro Biosystems or R&D Systems); also called ILTR4
T1 sequence (Q8N423 other isoform, or with tags, fused parts or gaps limits assumed): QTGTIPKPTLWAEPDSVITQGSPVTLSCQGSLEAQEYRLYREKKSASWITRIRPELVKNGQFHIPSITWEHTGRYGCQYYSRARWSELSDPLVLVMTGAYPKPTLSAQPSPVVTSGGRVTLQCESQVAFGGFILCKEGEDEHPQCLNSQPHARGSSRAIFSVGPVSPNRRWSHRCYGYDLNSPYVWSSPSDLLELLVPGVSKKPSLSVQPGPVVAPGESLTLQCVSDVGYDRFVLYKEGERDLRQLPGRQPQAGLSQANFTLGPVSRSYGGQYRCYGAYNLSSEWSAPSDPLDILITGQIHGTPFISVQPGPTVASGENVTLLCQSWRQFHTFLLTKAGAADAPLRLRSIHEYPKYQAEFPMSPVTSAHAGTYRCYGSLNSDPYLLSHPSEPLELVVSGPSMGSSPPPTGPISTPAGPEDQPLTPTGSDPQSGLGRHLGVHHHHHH
Test Summary: SPR, high resolution kinetics, triplicate, LALA antibody
Result Type: Kd (pM)
State the answer as a number, implicitly in pM.

Here's what some known entries look like.
Binder	Result Type	Unit Tag	Recorded Number
Hz156.03-LALA (antibody, human IgG1, kappa, L234A L235A, V domains shown, Humanized L156S3, human IgG1 L234A/L235A, kappa) VH: QVQLVQSGAEVKKPGSSVKVSCKASGYTFTDYYMNWVRQAPGQGLEWIARIYPGVYRTHYNEKFKDRVTLTADKSTSTAYMELSSLRSEDTAVYYCARSGYYGGTYEEDAMDYWGQGTTVTVSS VL: DIQMTQSPSSLSASVGDRVTITCRASENIYSNLAWYQQKPGKAPKLLVYAATSLADGVPSRFSGSGSGTDYTLTISSLQPEDFATYYCQNFWDTPYTFGQGTKVEIKR	Kd	pM	5.7
Hz45.01-LALA (antibody, human IgG1, kappa, L234A L235A, V domains shown, Humanized L45S4, human IgG1 L234A/L235A, kappa; also called Humanized 45_01; Hu IgG 45_01 LALA) VH: QVQLVQSGAEVKKPGASVKVSCKASGYTFTDYYMNWVRQAPGQRLEWIGDINPNNGGTSYNQKFKGRATITVDTSASTAYMELSSLRSEDTAVYYCARGGAELTGTYWYFDVWGQGTTVTVSS VL: DIQMTQSPSSLSASVGDRVTITCRASENIYSNLAWYQQKPGKAPKVLVYGATNLADGVPSRFSGSGSGTEYTLTISSLQPEDFATYYCQHFWDSPFTFGGGTKVEIKR	Kd	pM	154

binder Hz180-LALA (antibody, human IgG1, kappa, L234A L235A, V domains shown, Humanized L180S4, human IgG1 L234A/L235A, kappa; also called Humanized 180_04; Hz 180 04) VH: QVQLVQSGAEVKKPGSSVKVSCKASGYSFIGYFMNWMRQAPGQGLEWIGRINPYNGDIFYNQKFKGRVTITVDKSTSTAYMELSSLRSEDTAVYYCARGITVAAGSFDVWGQGTTVTVSS VL: DIVMTQSPDSLAVSLGERATINCRASESVDNYGNTFMHWYQQKPGQPPKLLIYRASNLESGIPDRFSGSGSGTDFTLTISSLQAEDVAVYYCQQSSDHPLTFGGGTKVEIKR , Kd observed: 1.6
